The measurements presented in this section are drawn from patent US11266675B2.

# Tested on: RD cells
# PROCEDURE SUMMARY: Cell viability assay (MTT)
# Type: cell-based, Human
# MEASUREMENT SETUP: serial dilution of Ver-155008 for 24 hours, read-out: Cytotoxity CC50
# Description: RD cells were seeded in 96-well plates (5,000 cells/well) and treated with serial dilution of Ver-155008 for 24 hours for cell viability assay. Ten μL of MTT was added to cultured cells in 100 μl culture medium and incubated at 37° C. for 4 h. Subsequently 100 μl of Dimethyl Sulfoxide were added. The optical density was measured at a wavelength of 570 nm. The cell viability assay was carried out in triplicates by three independent experiments as previously described.
MEASURED METRIC: CC50 (µM)
One number for each entry, in µM.

Query: Which CC50 is reported for this molecule? N#Cc1ccc(COC[C@H]2O[C@@H](n3c(NCc4ccc(Cl)c(Cl)c4)nc4c(N)ncnc43)[C@H](O)[C@@H]2O)cc1 [Ver-155008]
Response: 47.7
